condition.description: in DMF, 296.42 K
measurement.kind: solubility (mole fraction)

                      given_smiles  assay_result
0  CCc1ccc(C(=O)c2ccccc2C(=O)O)cc1          0.42

====

condition.description: in NMP, 334.3 K
measurement.kind: solubility (mole fraction)

                      given_smiles  assay_result
0  CCc1ccc(C(=O)c2ccccc2C(=O)O)cc1         0.484

====

condition.description: in THF, 335.75 K
measurement.kind: solubility (mole fraction)

>>> print(df.to_string())
                      given_smiles  assay_result
0  CCc1ccc(C(=O)c2ccccc2C(=O)O)cc1        0.0541

====

condition.description: in NMP, 293.44 K
measurement.kind: solubility (mole fraction)

>>> print(df.to_string())
                      given_smiles  assay_result
0  CCc1ccc(C(=O)c2ccccc2C(=O)O)cc1         0.209

====

condition.description: in 1,4-dioxane, 288.88 K
measurement.kind: solubility (mole fraction)

>>> print(df.to_string())
                      given_smiles            measurement_kind  assay_result
0  CCc1ccc(C(=O)c2ccccc2C(=O)O)cc1  solubility (mole fraction)        0.0042

====

condition.description: in methanol, 295.45 K
measurement.kind: solubility (mole fraction)

>>> print(df.to_string())
                      given_smiles            measurement_kind  assay_result
0  CCc1ccc(C(=O)c2ccccc2C(=O)O)cc1  solubility (mole fraction)         0.118

====

condition.description: in THF, 296.42 K
measurement.kind: solubility (mole fraction)

In [3]: df
Out[3]:
                      given_smiles            measurement_kind  assay_result
0  CCc1ccc(C(=O)c2ccccc2C(=O)O)cc1  solubility (mole fraction)        0.0125

====

condition.description: in ethyl formate, 299.65 K
measurement.kind: solubility (mole fraction)

In [3]: df
Out[3]:
                      given_smiles            measurement_kind  assay_result
0  CCc1ccc(C(=O)c2ccccc2C(=O)O)cc1  solubility (mole fraction)         0.005

====

condition.description: in n-propanol, 279.55 K
measurement.kind: solubility (mole fraction)

>>> print(df.to_string())
                      given_smiles  assay_result
0  CCc1ccc(C(=O)c2ccccc2C(=O)O)cc1        0.0499

====

condition.description: in ethanol, 328.65 K
measurement.kind: solubility (mole fraction)

>>> print(df.to_string())
                      given_smiles  assay_result
0  CCc1ccc(C(=O)c2ccccc2C(=O)O)cc1         0.289

====

condition.description: in DMF, 335.75 K
measurement.kind: solubility (mole fraction)

>>> df
                      given_smiles            measurement_kind  assay_result
0  CCc1ccc(C(=O)c2ccccc2C(=O)O)cc1  solubility (mole fraction)         0.532

====

condition.description: in DMF, 286.49 K
measurement.kind: solubility (mole fraction)

In [3]: df
Out[3]:
                      given_smiles  assay_result
0  CCc1ccc(C(=O)c2ccccc2C(=O)O)cc1         0.367
